- assayedTarget: Caspase-8 (Homo sapiens, UniProt Q14790)
- Sequence (Q14790 217-479): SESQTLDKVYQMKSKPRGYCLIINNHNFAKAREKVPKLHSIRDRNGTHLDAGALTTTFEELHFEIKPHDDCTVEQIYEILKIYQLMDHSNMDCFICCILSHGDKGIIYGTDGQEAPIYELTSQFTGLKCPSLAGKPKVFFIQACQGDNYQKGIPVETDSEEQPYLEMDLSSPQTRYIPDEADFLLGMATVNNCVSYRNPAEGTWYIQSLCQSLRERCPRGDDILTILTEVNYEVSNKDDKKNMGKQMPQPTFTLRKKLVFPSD
- protocolDescription: Kinetic compound screening, progress curve method, caspase-8
- Assay type: biochemical
- condition: Table IV; NI = no inhibition at concentrations tested
Residues, ends and D or L forms follow the SMILES beside them. *: point of attachment. Cbz = O=C(OCc1ccccc1)*; CH2F = FC*
For each entry below, report its Caspase-8 Ki (app) value.

Form field Caspase-8 Ki (app), entry Cc1cccc(C)c1C(=O)OCC(=O)[C@H](CC(=O)O)NC(=O)C1CCCN1C(=O)[C@@H](CCC(=O)O)NC(=O)[C@H](CC(=O)O)NC(=O)Cc1ccc(O)c([N+](=O)[O-])c1 (stereo partly drawn) [AB11, NP-D-E- P-D-DMBA] : 580,547 M-1s-1

Form field Caspase-8 Ki (app), entry Cc1cccc(C)c1C(=O)OCC(=O)[C@H](CC(=O)O)NC(=O)[C@@H](NC(=O)[C@H](CCC(=O)O)NC(=O)[C@H](CC(C)C)NC(=O)Cc1ccc(O)c([N+](=O)[O-])c1)C(C)O (stereo partly drawn) [AB08, Np-L-E- T-D-DMBA] : 599,788 M-1s-1

Form field Caspase-8 Ki (app), entry CC[C@H](NC(=O)[C@@H](CCC(=O)O)NC(=O)c1ccccc1N)C(=O)N[C@@H](CC(=O)O)C(=O)COC(=O)c1c(C)cccc1C [AB28, NH2-6-E-8-D-DMBA] : 817,077 M-1s-1

Form field Caspase-8 Ki (app), entry Cc1cccc(C)c1C(=O)OCC(=O)[C@H](CC(=O)O)NC(=O)[C@@H](NC(=O)[C@@H](NC(=O)[C@H](CC(=O)O)NC(=O)Cc1ccc(O)c([N+](=O)[O-])c1)c1ccccc1)C(C)C [AB13, Np-D-E-34-V-D-DMBA] : <5,000 M-1s-1

Form field Caspase-8 Ki (app), entry Cc1cccc(C)c1C(=O)OCC(=O)[C@H](CC(=O)O)NC(=O)[C@H](Cc1cc[nH]c1)NC(=O)[C@H](CCC(=O)O)NC(=O)[C@H](CC(C)C)NC(=O)Cc1ccc(O)c([N+](=O)[O-])c1 [AB07, Np-L-E- H-D-DMBA] : 506,912 M-1s-1

Form field Caspase-8 Ki (app), entry Cc1cccc(C)c1C(=O)OCC(=O)[C@H](CC(=O)O)NC(=O)[C@@H](NC(=O)C(CCC(=O)O)NC(=O)[C@H](Cc1ccc2ccccc2c1)NC(=O)Cc1ccc(O)c([N+](=O)[O-])c1)C(C)C (stereo partly drawn) [AB17, Np-26-E-V-D-DMBA] : 126,323 M-1s-1

Form field Caspase-8 Ki (app), entry CCC(C)C(NC(=O)Cc1ccc(O)c([N+](=O)[O-])c1)C(=O)N[C@@H](CC(C)C)C(=O)N[C@@H](C)C(=O)N[C@@H](CC(=O)O)C(=O)COC(=O)c1c(C)cccc1C (stereo partly drawn) [AB40, Np-I-L- A-D-AOMK] : 35,174 M-1s-1

Form field Caspase-8 Ki (app), entry COC(=O)C[C@H](NC(=O)[C@H](C)NC(=O)[C@@H](NC(=O)OCc1ccccc1)C(C)C)C(=O)CF [ZVAD-fmk, reference compound] (Cbz-Val-Ala-Asp(OMe)-CH2F) : 203,286 M-1s-1

Form field Caspase-8 Ki (app), entry Cc1cccc(C)c1C(=O)OCC(=O)[C@H](CC(=O)O)NC(=O)[C@H](C)NC(=O)[C@H](CC(C)C)NC(=O)C1CCCN1C(=O)Cc1ccc([N+](=O)[O-])c(O)c1 (stereo partly drawn) [AB38, Np-P-L- A-D-AOMK] : 19,676 M-1s-1

Form field Caspase-8 Ki (app), entry Cc1cccc(C)c1C(=O)OCC(=O)[C@H](CC(=O)O)NC(=O)[C@@H](NC(=O)[C@H](CCC(=O)O)NC(=O)[C@H](Cc1ccc(I)cc1)NC(=O)Cc1ccc(O)c([N+](=O)[O-])c1)C1Cc2ccccc2C1 [AB19, NP-31-E-23-D-DMBA] : 396,225 M-1s-1

Form field Caspase-8 Ki (app), entry CCC(C)C(NC(=O)Cc1ccc(O)c([N+](=O)[O-])c1)C(=O)N[C@@H](CC(C)C)C(=O)N1CSCC1C(=O)N[C@@H](CC(=O)O)C(=O)COC(=O)c1c(C)cccc1C (stereo partly drawn) [AB41, Np-I-L-38-D-AOMK] : 49,815 M-1s-1

Form field Caspase-8 Ki (app), entry Cc1cccc(C)c1C(=O)OCC(=O)[C@H](CC(=O)O)NC(=O)C1(NC(=O)[C@H](CCC(=O)O)NC(=O)[C@H](CC(=O)O)NC(=O)Cc2ccc(O)c([N+](=O)[O-])c2)CC1 [AB29, Np-D-E-11-D-DMBA] : 90,503 M-1s-1

Form field Caspase-8 Ki (app), entry Cc1ccc(C[C@H](NC(=O)[C@H](CC(=O)O)NC(=O)Cc2ccc(O)c([N+](=O)[O-])c2)C(=O)N[C@H](C(=O)N[C@@H](CC(=O)O)C(=O)COC(=O)c2c(C)cccc2C)C(C)C)cc1 [AB12, Np-D-E-29-V-D-DMBA] : 271,626 M-1s-1

Form field Caspase-8 Ki (app), entry Cc1cccc(C)c1C(=O)OCC(=O)[C@H](CC(=O)O)NC(=O)[C@@H](NC(=O)[C@H](CCC(=O)O)NC(=O)[C@H](Cc1ccc(I)cc1)NC(=O)Cc1ccc(O)c([N+](=O)[O-])c1)C(C)O (stereo partly drawn) [AB18, NP-31-E-T-D-DMBA] : 572,012 M-1s-1

Form field Caspase-8 Ki (app), entry Cc1ccc(C[C@H](NC(=O)Cc2ccc(O)c([N+](=O)[O-])c2)C(=O)N[C@@H](CCC(=O)O)C(=O)N[C@H](C(=O)N[C@@H](CC(=O)O)C(=O)COC(=O)c2c(C)cccc2C)C(C)O)cc1 (stereo partly drawn) [AB20, Np-29-E-T-D-DMBA] : 1,071,401 M-1s-1

Form field Caspase-8 Ki (app), entry Cc1cccc(C)c1C(=O)OCC(=O)[C@H](CC(=O)O)NC(=O)[C@@H](NC(=O)[C@H](Cc1ccccn1)NC(=O)[C@H](Cc1ccc2ccccc2c1)NC(=O)Cc1ccc(O)c([N+](=O)[O-])c1)C(C)C [AB16, Np-26-3-V-D-DMBA] : 121,650 M-1s-1

Form field Caspase-8 Ki (app), entry Cc1cccc(C)c1C(=O)OCC(=O)[C@H](CC(=O)O)NC(=O)[C@@H](NC(=O)[C@H](Cc1ccncc1)NC(=O)[C@H](CC(=O)O)NC(=O)Cc1ccc(O)c([N+](=O)[O-])c1)C(C)C [AB06, Np-D-3-V-D-DMBA] : 32,909 M-1s-1

Form field Caspase-8 Ki (app), entry CCC(C)C(NC(=O)Cc1ccc(O)c([N+](=O)[O-])c1)C(=O)NC(Cc1ccccc1)C(=O)N1CCCC1C(=O)N[C@@H](CC(=O)O)C(=O)COC(=O)c1c(C)cccc1C (stereo partly drawn) [AB42, NP-I-F- P-D-AOMK] : 22,544 M-1s-1

Form field Caspase-8 Ki (app), entry Cc1cccc(C)c1C(=O)OCC(=O)[C@H](CC(=O)O)NC(=O)[C@@H](NC(=O)[C@H](CCC(=O)O)NC(=O)[C@H](CC(=O)O)NC(=O)Cc1ccc(O)c([N+](=O)[O-])c1)C(C)C [AB09, Np-D-E- V-D-DMBA] : 1,077,839 M-1s-1
